Answer each item with its documented Phage binding ELISA CD28 scFv signal in presence of CD28.
Target: Anti-CD28 scFv (VH-linker 1-VL) (biotinylated for capture on neutravidin plates)
Sequence (scFv, as listed by the source): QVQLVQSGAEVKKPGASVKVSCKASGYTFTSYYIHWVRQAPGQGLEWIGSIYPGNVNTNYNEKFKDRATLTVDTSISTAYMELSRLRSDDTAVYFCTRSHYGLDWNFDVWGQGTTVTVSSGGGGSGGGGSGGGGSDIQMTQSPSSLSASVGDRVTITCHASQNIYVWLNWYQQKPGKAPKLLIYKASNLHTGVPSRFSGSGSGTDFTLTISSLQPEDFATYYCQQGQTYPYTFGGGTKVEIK
Test: phage ELISA, scFv captured on plate, competitor soluble CD28;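 further: crude clonal phage supernatants added to wells pre-incubated with soluble CD28 or with blocking buffer only as control, bound phage read out with HRP-linked anti-M13 antibody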
Answers are plain numbers.

MDWCPKYLWDKCFH [Phage-152] | 0.109
MDWCPRSLWIYCFN [Phage-131] | 0.401
LDWCPRDLWHVCFF [Phage-178] | 0.105

Batch: Phage binding ELISA CD28 scFv signal in presence of CD28 for all items listed.
1. DVWCPKYMWSLCFN [Phage-192]
2. MDWCPRNMWAQCFA [Phage-199]
3. MNWCPTDLWHECFN [Phage-162]
4. MDWCPRYLWDACFF [Phage-130]
5. MDWCPRHLWSECFY [Phage-146]
6. LDWCPLNLWDLCYF [Phage-143]
7. MDWCPMDMWVNCFN [Phage-193]

1: 0.418; 2: 0.209; 3: 0.095; 4: 0.168; 5: 0.199; 6: 0.095; 7: 0.277

Report Phage binding ELISA CD28 scFv signal in presence of CD28 for every entry below.
1. MDWCPAYLWAECFS [Phage-175]
2. MDWCPVSLWHVCFY [Phage-125]
3. MDWCPTDMWHHCFL [Phage-205]

1: 0.12; 2: 0.409; 3: 0.126

# return Phage binding ELISA CD28 scFv signal in presence of CD28 for each item in the list
1. MHWCPLHLWNECYH [Phage-155]
2. MDWCPSDMWHECYA [Phage-194]
3. MDWCPVSLWDHCFN [Phage-177]

1. 0.113
2. 0.2
3. 0.1
